As shown below, each of these molecules has a reported log10 of Ki value.
TARGET_DESC: Phosphatidylinositol 4,5-bisphosphate 3-kinase catalytic subunit alpha isoform (Homo sapiens)
Sequence (P42336 whole entry, canonical isoform): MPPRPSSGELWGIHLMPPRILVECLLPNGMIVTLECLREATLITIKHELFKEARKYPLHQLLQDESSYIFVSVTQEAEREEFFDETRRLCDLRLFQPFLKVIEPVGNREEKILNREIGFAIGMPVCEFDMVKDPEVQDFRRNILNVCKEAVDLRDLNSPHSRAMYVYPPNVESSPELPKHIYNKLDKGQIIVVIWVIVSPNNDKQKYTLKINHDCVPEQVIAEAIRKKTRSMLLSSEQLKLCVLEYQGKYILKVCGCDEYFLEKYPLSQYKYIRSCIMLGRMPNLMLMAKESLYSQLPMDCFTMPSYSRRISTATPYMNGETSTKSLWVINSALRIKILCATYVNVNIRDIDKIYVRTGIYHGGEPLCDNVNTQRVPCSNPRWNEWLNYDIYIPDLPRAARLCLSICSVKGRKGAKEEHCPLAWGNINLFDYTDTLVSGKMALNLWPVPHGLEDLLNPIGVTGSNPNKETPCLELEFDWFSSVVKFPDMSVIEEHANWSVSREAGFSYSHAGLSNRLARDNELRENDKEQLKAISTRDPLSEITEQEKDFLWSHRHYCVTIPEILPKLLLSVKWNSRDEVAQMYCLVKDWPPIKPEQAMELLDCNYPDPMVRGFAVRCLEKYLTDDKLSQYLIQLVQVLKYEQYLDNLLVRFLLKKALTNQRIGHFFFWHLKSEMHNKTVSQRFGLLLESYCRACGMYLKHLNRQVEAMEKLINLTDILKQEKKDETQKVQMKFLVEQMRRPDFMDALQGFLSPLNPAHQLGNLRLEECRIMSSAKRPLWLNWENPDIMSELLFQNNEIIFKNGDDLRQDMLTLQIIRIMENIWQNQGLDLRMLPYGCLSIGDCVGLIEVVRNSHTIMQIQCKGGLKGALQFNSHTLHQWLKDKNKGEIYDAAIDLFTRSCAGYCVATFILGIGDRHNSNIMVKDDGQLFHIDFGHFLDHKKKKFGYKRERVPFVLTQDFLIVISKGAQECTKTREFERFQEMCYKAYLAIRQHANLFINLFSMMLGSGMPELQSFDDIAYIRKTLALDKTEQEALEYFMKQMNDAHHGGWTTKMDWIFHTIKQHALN
ASSAY_PROTOCOL: Displacement of Alexafluor labelled kinase tracer314 from recombinant N-terminal His6-tagged PI3K p110alpha (unknown origin) incubated for 1 hr by FRET-based LanthaScreen Eu kinase binding assay
PARAMETER_MEASURED: log10 of Ki (log10 of the value in nM)

{"columns": ["GIVEN_SMILES", "PARAMETER_MEASURED", "OBSERVED_VALUE"],
 "data": [
  ["Nc1cc(C(F)(F)F)c(-c2nc(N3CCOCC3)nc(N3C4CCC3COC4)n2)cn1", "log10 of Ki", 1.30],
  ["C[C@@H]1COCCN1c1nc(-c2cnc(N)cc2C(F)(F)F)nc(N2CCOCC2)n1", "log10 of Ki", 1.73],
  ["C[C@H]1COCCN1c1nc(-c2cnc(N)nc2C(F)(F)F)nc(N2CCOCC2)n1", "log10 of Ki", 0.60],
  ["C[C@H]1COCCN1c1nc(-c2cnc(N)cc2C(F)(F)F)nc(N2CCOCC2)n1", "log10 of Ki", 0.92],
  ["C[C@H]1COCCN1c1nc(-c2cnc(N)cc2C(F)(F)F)nc(N2CCOC[C@@H]2C)n1", "log10 of Ki", 0.83],
  ["C[C@H]1COC[C@H](C)N1c1nc(-c2cnc(N)cc2C(F)(F)F)nc(N2[C@@H](C)COC[C@@H]2C)n1", "log10 of Ki", 1.57]
]}

====

TARGET_DESC: Serine/threonine-protein kinase mTOR (Homo sapiens)
ASSAY_PROTOCOL: Displacement of Alexafluor labelled kinase tracer314 from recombinant human C-terminal GST-tagged mTOR (1360 to 2549 amino acids) expressed in insect cells incubated for 1 hr by FRET-based LanthaScreen Eu kinase binding assay
Reported Ki maps to class as: bottom end = under 40 nM, midrange = from 40 nM up to 100 nM, top end = 100 nM and over

{"columns": ["GIVEN_SMILES", "LABEL_CLASS"],
 "data": [
  ["C[C@H]1COCCN1c1nc(-c2cnc(N)cc2C(F)(F)F)nc(N2CCOC[C@@H]2C)n1", "top end"],
  ["Nc1cc(C(F)(F)F)c(-c2nc(N3CC4CCC(C3)O4)nc(N3CC4CCC(C3)O4)n2)cn1", "top end"],
  ["C[C@H]1COC[C@H](C)N1c1nc(-c2cnc(N)cc2C(F)(F)F)nc(N2[C@@H](C)COC[C@@H]2C)n1", "top end"],
  ["C[C@H]1COCCN1c1nc(-c2cnc(N)nc2C(F)(F)F)nc(N2CCOCC2)n1", "bottom end"],
  ["C[C@H]1COC[C@H](C)N1c1nc(-c2cnc(N)cc2C(F)(F)F)nc(N2CCOCC2)n1", "midrange"],
  ["C[C@H]1COCCN1c1cc(-c2cnc(N)nc2C(F)F)nc(N2CCOCC2)n1", "top end"],
  ["C[C@@H]1COC[C@H](C)N1c1nc(-c2cnc(N)cc2C(F)(F)F)nc(N2CCOCC2)n1", "bottom end"],
  ["C[C@@H]1COC[C@@H](C)N1c1nc(-c2cnc(N)cc2C(F)(F)F)nc(N2[C@H](C)COC[C@H]2C)n1", "top end"],
  ["C[C@@H]1COCCN1c1nc(-c2cnc(N)cc2C(F)(F)F)nc(N2CCOC[C@H]2C)n1", "top end"],
  ["Nc1cc(C(F)(F)F)c(-c2nc(N3CCOCC3)nc(N3C4CCC3COC4)n2)cn1", "midrange"],
  ["C[C@H]1COCCN1c1nc(-c2cnc(N)cc2C(F)(F)F)nc(N2CCOCC2)n1", "bottom end"],
  ["C[C@@H]1COCCN1c1nc(-c2cnc(N)cc2C(F)(F)F)nc(N2CCOCC2)n1", "top end"],
  ["C[C@H]1COCCN1c1nc(-c2cnc(N)nc2C(F)F)cc(N2CCOCC2)n1", "bottom end"],
  ["C[C@H]1COCCN1c1nc(-c2cnc(N)cc2C(F)F)cc(N2CCOCC2)n1", "bottom end"],
  ["C[C@@H]1COC[C@@H](C)N1c1nc(-c2cnc(N)cc2C(F)(F)F)nc(N2CCOCC2)n1", "midrange"],
  ["C[C@H]1COCCN1c1nc(-c2cnc(N)cc2C(F)F)nc(N2CCOCC2)n1", "bottom end"]
]}
